Recorded residual activity, one value per entry.
biological target: RIPK2 (human) (UniProt O43353); experiment: radiometric filter-binding kinase assay, Kinase HotSpot; details: compound 0.5 µM; ATP 10 µM
Sequence (O43353 whole entry, looked up): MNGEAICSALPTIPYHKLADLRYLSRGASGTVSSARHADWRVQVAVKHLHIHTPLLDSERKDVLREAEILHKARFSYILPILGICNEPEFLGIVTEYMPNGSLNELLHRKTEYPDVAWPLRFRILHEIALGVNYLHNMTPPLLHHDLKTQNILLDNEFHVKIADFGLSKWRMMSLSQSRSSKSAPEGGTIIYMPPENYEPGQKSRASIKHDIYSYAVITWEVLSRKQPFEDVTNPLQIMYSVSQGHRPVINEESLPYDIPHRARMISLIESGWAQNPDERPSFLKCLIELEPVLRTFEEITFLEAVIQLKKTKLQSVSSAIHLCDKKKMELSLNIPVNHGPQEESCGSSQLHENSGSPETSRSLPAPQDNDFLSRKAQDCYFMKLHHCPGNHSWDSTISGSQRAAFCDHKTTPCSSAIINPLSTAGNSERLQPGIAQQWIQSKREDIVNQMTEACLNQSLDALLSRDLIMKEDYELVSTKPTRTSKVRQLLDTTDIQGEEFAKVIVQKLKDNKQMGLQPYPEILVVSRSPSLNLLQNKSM
Unit % implied. Number only.

entry-smiles: COc1cc(Nc2c(C#N)cnc3cc(OCCCN4CCN(C)CC4)c(OC)cc23)c(Cl)cc1Cl
unit-abbreviation: %
recorded-result: 111
//
entry-smiles: CN(C)c1ccc(/C=C2\C(=O)Nc3ccccc32)cc1
unit-abbreviation: %
recorded-result: 87.8

Next, consider the following compound.
// residual activity lookup, compound = "O=C(c1cc2cc(O)ccc2[nH]1)c1cc2cc(O)ccc2[nH]1" , result: 37.8

* * *

Recorded residual activity, one value per entry.
target: CDK9 CCNK (human) (UniProt O75909+P50750); assay: radiometric filter-binding kinase assay, Kinase HotSpot; details: compound 0.5 µM; ATP 10 µM
Sequence (O75909 whole entry, looked up): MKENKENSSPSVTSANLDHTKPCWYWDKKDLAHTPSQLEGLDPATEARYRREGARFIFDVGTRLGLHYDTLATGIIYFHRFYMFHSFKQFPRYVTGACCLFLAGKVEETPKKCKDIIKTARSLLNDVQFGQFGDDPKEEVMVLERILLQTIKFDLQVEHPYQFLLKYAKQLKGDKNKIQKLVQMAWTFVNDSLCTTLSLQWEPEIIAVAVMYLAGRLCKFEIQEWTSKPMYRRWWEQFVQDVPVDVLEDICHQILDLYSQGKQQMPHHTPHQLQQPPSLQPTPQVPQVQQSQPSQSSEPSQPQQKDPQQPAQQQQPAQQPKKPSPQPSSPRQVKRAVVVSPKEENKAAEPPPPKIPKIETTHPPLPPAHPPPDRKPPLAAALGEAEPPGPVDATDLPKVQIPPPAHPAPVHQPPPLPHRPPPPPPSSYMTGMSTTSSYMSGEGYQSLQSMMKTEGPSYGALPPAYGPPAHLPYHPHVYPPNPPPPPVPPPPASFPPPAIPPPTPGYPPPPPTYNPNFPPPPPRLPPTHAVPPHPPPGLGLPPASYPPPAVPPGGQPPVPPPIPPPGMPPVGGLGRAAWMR
Sequence (P50750 whole entry, looked up): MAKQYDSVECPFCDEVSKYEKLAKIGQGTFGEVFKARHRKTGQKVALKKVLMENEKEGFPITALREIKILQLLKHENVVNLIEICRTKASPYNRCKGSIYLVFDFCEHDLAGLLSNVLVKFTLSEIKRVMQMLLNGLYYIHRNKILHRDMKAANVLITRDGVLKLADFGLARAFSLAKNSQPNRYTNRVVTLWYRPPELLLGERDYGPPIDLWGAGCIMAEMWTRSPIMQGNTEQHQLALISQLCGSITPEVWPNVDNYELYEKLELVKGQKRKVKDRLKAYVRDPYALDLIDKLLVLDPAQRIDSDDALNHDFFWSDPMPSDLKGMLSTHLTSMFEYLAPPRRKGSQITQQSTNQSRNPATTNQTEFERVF
Unit % implied. Number only.

entry-smiles: Cc1cn(-c2cc(NC(=O)c3ccc(C)c(Nc4nccc(-c5cccnc5)n4)c3)cc(C(F)(F)F)c2)cn1
tested-system: CDK9 CCNK (human) (UniProt O75909+P50750)
recorded-result: 97.9

entry-smiles: CC(C)(C)c1cc(C=C(C#N)C#N)cc(Br)c1O
tested-system: CDK9 CCNK (human) (UniProt O75909+P50750)
recorded-result: 109

entry-smiles: COc1cc2ncnc(Nc3ccc(Oc4ccccc4)cc3)c2cc1OC
tested-system: CDK9 CCNK (human) (UniProt O75909+P50750)
recorded-result: 96.7

entry-smiles: CN1CCN(c2ccc3nc(-c4c(N)c5c(F)cccc5[nH]c4=O)[nH]c3c2)CC1
tested-system: CDK9 CCNK (human) (UniProt O75909+P50750)
recorded-result: 91.1

entry-smiles: O=C1NC(=O)c2c1c1c3ccccc3[nH]c1n1cncc21
tested-system: CDK9 CCNK (human) (UniProt O75909+P50750)
recorded-result: 83.8

// residual activity lookup, molecule = "c1ccc2c(-c3ccncc3)c[nH]c2c1" , result: 91.2

// residual activity lookup, molecule = "COc1ccc2c(c1)c(C1=C(c3c[nH]c4ccccc34)C(=O)NC1=O)cn2CCCN(C)C" , result: 54.6

// residual activity lookup, molecule = "Ic1cccc(CSc2nnc(-c3ccncc3)o2)c1" , result: 105

// residual activity lookup, molecule = "Cc1cccc(-c2nc(C(C)(C)C)[nH]c2-c2ccc3c(c2)OCO3)n1" , result: 106

// residual activity lookup, molecule = "C[C@@H]1CCN(C(=O)CC#N)C[C@@H]1N(C)c1ncnc2[nH]ccc12" , result: 102

* * *

biological target: TBK1 (human) (UniProt Q9UHD2); assay: radiometric filter-binding kinase assay, Kinase HotSpot; conditions: compound 0.5 µM; ATP 10 µM
Sequence (Q9UHD2 whole entry, looked up): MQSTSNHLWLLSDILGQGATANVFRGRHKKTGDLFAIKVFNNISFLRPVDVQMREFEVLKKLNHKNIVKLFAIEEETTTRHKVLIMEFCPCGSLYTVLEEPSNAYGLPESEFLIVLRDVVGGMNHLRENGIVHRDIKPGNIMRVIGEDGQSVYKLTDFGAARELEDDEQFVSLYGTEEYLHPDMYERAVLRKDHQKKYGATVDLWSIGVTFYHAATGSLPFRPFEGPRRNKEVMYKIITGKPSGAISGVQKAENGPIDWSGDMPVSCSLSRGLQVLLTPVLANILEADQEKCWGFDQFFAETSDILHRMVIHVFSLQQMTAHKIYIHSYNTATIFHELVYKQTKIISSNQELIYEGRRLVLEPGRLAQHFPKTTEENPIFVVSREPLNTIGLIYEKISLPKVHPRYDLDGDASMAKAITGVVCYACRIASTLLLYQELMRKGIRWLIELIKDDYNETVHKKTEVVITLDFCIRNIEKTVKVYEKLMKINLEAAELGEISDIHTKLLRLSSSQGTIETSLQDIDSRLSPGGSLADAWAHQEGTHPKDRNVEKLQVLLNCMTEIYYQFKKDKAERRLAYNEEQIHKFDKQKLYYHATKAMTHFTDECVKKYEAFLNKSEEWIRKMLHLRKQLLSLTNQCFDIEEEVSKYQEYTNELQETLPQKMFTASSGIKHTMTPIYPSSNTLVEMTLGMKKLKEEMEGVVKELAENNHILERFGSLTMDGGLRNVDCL
experimental-readout: residual activity (%)
Unit % implied. Number only.

Example cases with answers are listed next.
entry-smiles: Cc1cccc(-c2nc(C(C)(C)C)[nH]c2-c2ccc3c(c2)OCO3)n1
experimental-readout: residual activity
recorded-result: 91.9

entry-smiles: O=C1c2ccccc2-c2nc3nnnn3nc21
experimental-readout: residual activity
recorded-result: 87

entry-smiles: N#C/C(=C\c1ccc(O)c(O)c1)C(=O)NCc1ccccc1
experimental-readout: residual activity
recorded-result: 98.3

entry-smiles: COc1ccc(C(=O)Nc2sc3c(c2C(N)=O)CCCC3)cc1OC
experimental-readout: residual activity
recorded-result: 102

entry-smiles: Cc1nc(-c2ccccc2)c(-c2ccncc2)o1
experimental-readout: residual activity
recorded-result: 88

// residual activity lookup, molecule = "C[C@@H]1CCN(C(=O)CC#N)C[C@@H]1N(C)c1ncnc2[nH]ccc12" , result: 92.5

// residual activity lookup, molecule = "COc1ccc2c(c1)/C(=C/c1cnc[nH]1)C(O)=N2" , result: 70.7

// residual activity lookup, molecule = "CN(C)CCCn1cc(C2=C(c3c[nH]c4ccccc34)C(=O)NC2=O)c2ccccc21" , result: 83.8

// residual activity lookup, molecule = "NC(=O)c1cccc(-c2cc(Nc3ccc(OC(F)(F)F)cc3)ncn2)c1" , result: 92.4

// residual activity lookup, molecule = "CN(C)S(=O)(=O)c1ccc2c(c1)/C(=C/c1cc3c([nH]1)CCCC3)C(=O)N2" , result: 80.6

// residual activity lookup, molecule = "COc1cc2ncnc(Nc3ccc(OCc4ccccc4)cc3)c2cc1OC" , result: 101

// residual activity lookup, molecule = "Ic1cccc(CSc2nnc(-c3ccncc3)o2)c1" , result: 103

// residual activity lookup, molecule = "CN(C)c1ccc(/C=C2\C(=O)Nc3ccccc32)cc1" , result: 98.4

// residual activity lookup, molecule = "Cc1cncc2cccc(S(=O)(=O)N3CCCN(C(=O)CN)C[C@H]3C)c12" , result: 95.7

// residual activity lookup, molecule = "O=C(c1cc2cc(O)ccc2[nH]1)c1cc2cc(O)ccc2[nH]1" , result: 35

// residual activity lookup, molecule = "O=C1C(Cl)=C(N2C(=O)CCC2=O)C(=O)c2ccccc21" , result: 97.9

// residual activity lookup, molecule = "COc1ccc(Cl)cc1NC(=O)Nc1cc(C)nc2ccccc12" , result: 100

// residual activity lookup, molecule = "Fc1ccc(-c2nc3n(c2-c2ccncc2)CCS3)cc1" , result: 90.6

// residual activity lookup, molecule = "O=C1Nc2ccc(Br)cc2/C1=C\c1cc2c([nH]1)CCCC2" , result: 66.9

// residual activity lookup, molecule = "c1ccc2c(-c3ccncc3)c[nH]c2c1" , result: 93.4

// residual activity lookup, molecule = "Cn1c2ccccc2c2c3c(c4c5ccccc5n(CCC#N)c4c21)CNC3=O" , result: 72.1

// residual activity lookup, molecule = "CO[C@@H]1[C@H](N(C)C(=O)c2ccccc2)C[C@H]2O[C@]1(C)n1c3ccccc3c3c4c(c5c6ccccc6n2c5c31)C(=O)NC4" , result: 3.22
